- Assay system: Kdr (Homo sapiens, UniProt P35968)
- Construct: Kinases are expressed as either kinase domains or full length constructs; made in house
- Sequence (P35968 20-1356, species assumed): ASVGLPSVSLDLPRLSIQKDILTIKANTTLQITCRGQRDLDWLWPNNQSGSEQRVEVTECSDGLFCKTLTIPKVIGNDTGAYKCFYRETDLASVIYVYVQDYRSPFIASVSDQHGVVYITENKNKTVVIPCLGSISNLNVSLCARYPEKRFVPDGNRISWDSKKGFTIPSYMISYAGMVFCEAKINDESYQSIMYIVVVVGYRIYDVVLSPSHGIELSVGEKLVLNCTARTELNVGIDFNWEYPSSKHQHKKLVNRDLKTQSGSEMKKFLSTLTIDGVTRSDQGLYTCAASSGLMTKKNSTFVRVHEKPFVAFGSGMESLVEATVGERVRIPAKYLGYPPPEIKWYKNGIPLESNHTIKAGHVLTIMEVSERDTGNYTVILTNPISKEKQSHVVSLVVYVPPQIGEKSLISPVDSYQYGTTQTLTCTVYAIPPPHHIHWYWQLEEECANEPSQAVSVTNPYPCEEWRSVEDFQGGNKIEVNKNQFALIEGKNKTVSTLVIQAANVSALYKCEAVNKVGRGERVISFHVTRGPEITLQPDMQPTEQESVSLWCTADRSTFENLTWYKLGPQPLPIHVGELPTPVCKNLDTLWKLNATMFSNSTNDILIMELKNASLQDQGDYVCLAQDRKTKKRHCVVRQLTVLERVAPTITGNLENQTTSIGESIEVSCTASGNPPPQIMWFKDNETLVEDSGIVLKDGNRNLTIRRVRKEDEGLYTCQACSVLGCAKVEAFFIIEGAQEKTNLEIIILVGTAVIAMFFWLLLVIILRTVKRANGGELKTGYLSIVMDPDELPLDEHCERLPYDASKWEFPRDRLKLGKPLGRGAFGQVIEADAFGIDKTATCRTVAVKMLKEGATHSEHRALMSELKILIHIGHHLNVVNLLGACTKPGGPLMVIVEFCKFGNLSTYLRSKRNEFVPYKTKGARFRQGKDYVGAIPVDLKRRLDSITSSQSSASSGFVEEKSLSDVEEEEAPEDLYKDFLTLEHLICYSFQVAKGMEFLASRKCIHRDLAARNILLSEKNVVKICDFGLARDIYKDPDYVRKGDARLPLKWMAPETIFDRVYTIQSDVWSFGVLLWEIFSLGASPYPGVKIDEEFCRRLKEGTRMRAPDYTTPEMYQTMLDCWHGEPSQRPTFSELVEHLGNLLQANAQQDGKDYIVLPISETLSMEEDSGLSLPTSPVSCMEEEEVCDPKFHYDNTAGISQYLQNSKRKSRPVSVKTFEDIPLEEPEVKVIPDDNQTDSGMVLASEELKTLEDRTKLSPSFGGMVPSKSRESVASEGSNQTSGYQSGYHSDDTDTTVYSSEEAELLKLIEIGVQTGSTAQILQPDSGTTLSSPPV
- Test method notes: Kinase inhibition assay (33P transfer), Kdr
- Assay type: biochemical
- Condition details: Table 3; read-out: KDR-1
Observed property: IC50

[[record]]
compound = "c1coc(-c2cc(Nc3ncnc(Nc4ccc(N5CCOCC5)cc4)n3)[nH]n2)c1 [Compound 340]"
result = "< 0.989 µM"

[[record]]
compound = "COc1cc(Nc2ncnc(Cl)n2)cc(OC)c1OC [Compound 924]"
result = "1.35 to 8.09 µM"

[[record]]
compound = "COc1cc(Nc2ncnc(Nc3cc(OC)c(OC)c(OC)c3)n2)cc(OC)n1 [Compound 253]"
result = "0.965 to 5.79 µM"


Below is a list of compounds. For each, state its recorded IC50.
1. COc1ccc(Nc2ncnc(Nc3ccc(F)c(Cl)c3)n2)cc1OC [Compound 113]
2. COc1cc(Nc2ncnc(-n3c(NCC(N)=O)nc4ccccc43)n2)cc(OC)c1OC [Compound 389]
3. FC(F)C(F)(F)Oc1cccc(Nc2ncnc(-c3ccnc(N4CCCCC4)c3)n2)c1 [Compound 346]
4. C#Cc1cccc(Nc2ncnc(Nc3cc(OC)c(OC)c(OC)c3)n2)c1 [Compound 74]

["> 12 µM", "> 9.99 µM", "0.892 to 5.35 µM", "1.06 to 6.36 µM"]

* * *

- Assay system: Lck (Homo sapiens)
- Construct: Kinases are expressed as either kinase domains or full length constructs; made in house
- Sequence (P06239 whole entry, species assumed, the tested form may be a part): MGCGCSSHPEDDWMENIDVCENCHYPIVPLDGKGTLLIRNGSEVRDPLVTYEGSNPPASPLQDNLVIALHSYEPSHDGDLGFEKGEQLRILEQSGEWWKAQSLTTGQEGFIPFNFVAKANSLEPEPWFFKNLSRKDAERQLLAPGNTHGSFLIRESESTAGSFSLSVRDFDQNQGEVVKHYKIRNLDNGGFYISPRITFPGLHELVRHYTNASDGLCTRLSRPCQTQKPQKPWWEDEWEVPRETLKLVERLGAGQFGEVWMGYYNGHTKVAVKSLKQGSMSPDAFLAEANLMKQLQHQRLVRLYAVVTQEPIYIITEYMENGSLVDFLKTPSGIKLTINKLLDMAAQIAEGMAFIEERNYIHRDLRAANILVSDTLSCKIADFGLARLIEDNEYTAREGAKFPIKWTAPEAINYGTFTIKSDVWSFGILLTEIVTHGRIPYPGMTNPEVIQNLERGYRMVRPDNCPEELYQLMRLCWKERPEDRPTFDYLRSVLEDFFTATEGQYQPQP
- Test method notes: Kinase inhibition assay (33P transfer), Lck
- Type: biochemical
- Condition details: read-out: Lck-1
pIC50: −log10 of the molar value.
Observed property: pIC50

Solved cases below.
[[record]]
compound = "O=C(O)Cc1cccc(Nc2ncnc(-n3c(NCc4ccccc4)nc4ccccc43)n2)c1"
result = "5.27 to 6.05"

[[record]]
compound = "Cc1ccc2c(c1)CCCN2c1ncnc(Nc2cc[nH]n2)n1"
result = "5.11 to 5.89"

[[record]]
compound = "Nc1nc2ccccc2n1-c1ncnc(Nc2ccccc2)n1"
result = "5.10 to 5.88"

[[record]]
compound = "COc1ccc(Nc2ncnc(-n3c(N)nc4ccccc43)n2)cc1"
result = "5.14 to 5.92"

[[record]]
compound = "CCOC(=O)C(Nc1nc2ccccc2n1-c1ncnc(Nc2cc(OC)c(OC)c(OC)c2)n1)c1ccccc1 (stereo not drawn)"
result = "5.20 to 5.36"

[[record]]
compound = "COc1cc(Nc2ncnc(-n3c(NCc4ccc(F)cc4Cl)nc4ccccc43)n2)cc(OC)c1OC"
result = "5.35 to 6.13"

[[record]]
compound = "CC(C)(C)c1cc(Nc2ncnc(Cl)n2)[nH]n1"
result = "< 4.75"

[[record]]
compound = "O=c1[nH]c2ccccc2n1-c1ncnc(Nc2ccc3ncccc3c2)n1"
result = "5.17 to 5.95"

[[record]]
compound = "COc1cc(Nc2ncnc(-n3c(Nc4ccccc4C(C)C)nc4ccccc43)n2)cc(OC)c1OC"
result = "5.33 to 6.11"

[[record]]
compound = "COc1ccc(CCNc2ncnc(N3CCCc4cc(C)ccc43)n2)cc1OC"
result = "< 4.95"


Count: 5. Required value per item: pIC50.
1. COc1cc(Nc2ncnc(-n3c(N[C@H](C)c4ccccc4)nc4ccccc43)n2)cc(OC)c1OC
2. O=C(O)Cc1cccc(Nc2ncnc(-n3c(NCc4ccccn4)nc4ccccc43)n2)c1
3. COc1cc(Nc2ncnc(N(C)c3ccc(F)c(Cl)c3)n2)cc(OC)c1OC
4. COc1cc(Nc2ncnc(-n3c(N[C@H](CO)c4ccccc4)nc4ccccc43)n2)cc(OC)c1OC
5. COc1cc(Nc2ncnc(-n3nc(-c4ccccc4)cc3N)n2)cc(OC)c1OC

1: 5.32 to 6.09; 2: < 5.00; 3: > 6.02; 4: < 5.06; 5: 5.24 to 6.02

* * *

- Assay system: Fyn (Homo sapiens, UniProt P06241)
- Construct: Kinases are expressed as either kinase domains or full length constructs; made in house
- Sequence (P06241 whole entry, species assumed, the tested form may be a part): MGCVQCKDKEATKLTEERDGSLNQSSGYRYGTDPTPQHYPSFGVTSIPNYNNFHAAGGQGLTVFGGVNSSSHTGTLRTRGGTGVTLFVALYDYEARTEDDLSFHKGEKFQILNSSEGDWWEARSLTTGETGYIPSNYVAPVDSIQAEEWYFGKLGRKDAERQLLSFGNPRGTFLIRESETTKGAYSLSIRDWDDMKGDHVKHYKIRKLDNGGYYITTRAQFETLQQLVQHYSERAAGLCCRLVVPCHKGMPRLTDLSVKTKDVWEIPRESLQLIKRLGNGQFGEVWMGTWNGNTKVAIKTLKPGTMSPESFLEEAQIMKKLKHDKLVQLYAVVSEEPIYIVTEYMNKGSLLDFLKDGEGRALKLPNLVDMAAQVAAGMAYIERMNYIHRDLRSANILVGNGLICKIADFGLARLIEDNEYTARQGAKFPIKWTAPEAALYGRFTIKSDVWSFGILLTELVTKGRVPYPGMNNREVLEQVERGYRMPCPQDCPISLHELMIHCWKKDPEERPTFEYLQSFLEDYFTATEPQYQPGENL
- Test method notes: Kinase inhibition assay (33P transfer), Fyn
- Format: biochemical
- Condition details: read-out: Fyn-1
pIC50: −log10 of the molar value.
Hi there, I'd appreciate the recorded pIC50 for every entry that follows.

[[record]]
chem_smiles = "COc1cc(Nc2ncnc(-c3c(O)[nH]c4ccccc34)n2)cc(OC)c1OC"
assay_system = "Fyn (Homo sapiens, UniProt P06241)"
observed_property = "pIC50"
result = "5.21 to 5.99"

[[record]]
chem_smiles = "C=CCNc1cc(-c2ncnc(Nc3cc(OC)c(OC)c(OC)c3)n2)ccn1"
assay_system = "Fyn (Homo sapiens, UniProt P06241)"
observed_property = "pIC50"
result = "< 4.94"

[[record]]
chem_smiles = "COc1cc(Nc2ncnc(Nc3ccc4c(c3)OCO4)n2)cc(OC)c1OC"
assay_system = "Fyn (Homo sapiens, UniProt P06241)"
observed_property = "pIC50"
result = "5.22 to 6.00"


# return pIC50 for each item in the list
1. COc1cc(Nc2ncnc(Nc3ccc4c(ccn4Cc4ccccc4)c3)n2)cc(OC)c1OC
2. COc1cc(Nc2ncnc(Nc3ccccc3)n2)cc(OC)c1OC
3. Cc1cccc(Nc2ncnc(Nc3ccc4[nH]ccc4c3)n2)c1

1: 5.30 to 6.08; 2: > 5.95; 3: > 5.90

Summary for this molecule, CC(=O)NCc1ccc(Nc2ncnc(Nc3cc(-c4ccco4)n[nH]3)n2)cc1 : pIC50 is 5.05 to 5.21

* * *

- Assay system: c-Met (Homo sapiens, UniProt P08581)
- Construct: Kinases are expressed as either kinase domains or full length constructs; made in house
- Sequence (P08581 25-1390): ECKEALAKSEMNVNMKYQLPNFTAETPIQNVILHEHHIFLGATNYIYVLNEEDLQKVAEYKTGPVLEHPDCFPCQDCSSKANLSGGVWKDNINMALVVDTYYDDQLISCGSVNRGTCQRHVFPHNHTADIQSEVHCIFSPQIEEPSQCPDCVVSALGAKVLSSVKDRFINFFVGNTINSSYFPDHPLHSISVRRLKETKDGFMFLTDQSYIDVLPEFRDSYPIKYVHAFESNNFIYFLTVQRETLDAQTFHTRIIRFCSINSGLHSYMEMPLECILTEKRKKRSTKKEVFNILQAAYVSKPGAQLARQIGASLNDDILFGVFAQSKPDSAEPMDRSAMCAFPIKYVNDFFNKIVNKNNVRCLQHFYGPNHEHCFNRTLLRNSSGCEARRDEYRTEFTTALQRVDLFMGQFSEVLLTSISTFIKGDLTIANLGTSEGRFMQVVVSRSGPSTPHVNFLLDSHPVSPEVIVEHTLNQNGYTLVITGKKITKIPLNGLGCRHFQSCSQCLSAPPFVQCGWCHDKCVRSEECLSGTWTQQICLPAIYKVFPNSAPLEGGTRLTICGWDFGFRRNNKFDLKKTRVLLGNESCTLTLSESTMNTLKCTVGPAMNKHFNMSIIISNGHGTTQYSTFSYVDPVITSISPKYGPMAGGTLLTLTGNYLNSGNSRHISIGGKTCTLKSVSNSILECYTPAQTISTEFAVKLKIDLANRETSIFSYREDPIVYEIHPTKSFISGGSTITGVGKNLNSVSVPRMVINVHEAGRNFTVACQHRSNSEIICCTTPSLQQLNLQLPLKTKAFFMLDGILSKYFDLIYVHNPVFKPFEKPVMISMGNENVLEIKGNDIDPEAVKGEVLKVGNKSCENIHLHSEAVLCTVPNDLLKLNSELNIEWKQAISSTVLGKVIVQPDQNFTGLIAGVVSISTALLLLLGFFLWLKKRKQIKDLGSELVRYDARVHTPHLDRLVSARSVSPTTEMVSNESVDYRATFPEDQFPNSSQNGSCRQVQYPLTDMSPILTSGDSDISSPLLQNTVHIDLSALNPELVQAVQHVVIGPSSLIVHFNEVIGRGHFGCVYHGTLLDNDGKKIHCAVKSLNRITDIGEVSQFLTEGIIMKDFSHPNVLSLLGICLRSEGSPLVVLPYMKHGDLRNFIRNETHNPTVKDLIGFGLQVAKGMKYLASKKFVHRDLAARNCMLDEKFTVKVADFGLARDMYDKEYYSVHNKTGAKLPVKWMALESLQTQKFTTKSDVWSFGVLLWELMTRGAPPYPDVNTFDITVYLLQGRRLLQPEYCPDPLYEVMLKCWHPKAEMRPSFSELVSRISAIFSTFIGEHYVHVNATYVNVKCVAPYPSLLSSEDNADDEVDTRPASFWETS
- Test method notes: Kinase inhibition assay (33P transfer), c-Met
- Type: biochemical
- Condition details: Table 2, class symbols A-E; read-out: Met-1
Answer each item with its documented IC50.

[[record]]
chem_smiles = "c1coc(-c2cc(Nc3ncnc(Nc4ccc(-c5csnn5)cc4)n3)n[nH]2)c1"
observed_property = "IC50"
result = "< 0.991 µM"


Kindly give each listed record's IC50.
1. Cc1ccc(Cl)cc1Nc1ncnc(Nc2cc(Cl)ccc2C)n1
2. COc1cccc(Nc2ncnc(Nc3ccc4c(cnn4Cc4ccccc4)c3)n2)c1
3. COc1cccc(Nc2ncccc2-c2ncnc(Nc3cc(OC)c(OC)c(OC)c3)n2)c1
4. Fc1ccc(CNc2ncnc(Nc3cc(-c4ccco4)n[nH]3)n2)cc1
5. c1ccc(Cn2ncc3cc(Nc4ncnc(Nc5cccc(Cn6ccnn6)c5)n4)ccc32)cc1
6. COc1ccc(Nc2ncnc(NCCc3ccc(Cl)c(Cl)c3)n2)cc1OC
7. COc1ccc(Nc2ncnc(N(C)C3CCCCC3)n2)cc1OC

1: > 12.5 µM; 2: 0.945 to 5.67 µM; 3: > 9.77 µM; 4: > 12.8 µM; 5: 0.843 to 5.06 µM; 6: 0.952 to 5.71 µM; 7: 1.16 to 6.99 µM

Please report IC50 for every entry that follows.
1. O=S(=O)(O)c1cccc(Nc2ncnc(Nc3cc(-c4ccco4)[nH]n3)n2)c1
2. COc1ccc(Nc2ncnc(NCC(=O)c3ccccc3)n2)cc1OC

1 to 6.01 µM
> 12.3 µM

Each of the following entries comes with a recorded value; kindly state IC50 for each.
1. c1ccc(Cn2ncc3cc(Nc4ncnc(NCCN5CCCC5)n4)ccc32)cc1
2. COc1cc(Nc2ncnc(Nc3cc(Cl)c(NC(=O)c4ccccc4)cc3C)n2)cc(OC)c1OC
3. c1ccc(CNc2ncccc2-c2ncnc(Nc3cccc(Cn4ccnn4)c3)n2)cc1

["> 10.9 µM", "> 8.64 µM", "5.51 to 8.04 µM"]

* * *

- Assay system: Zap-70 (Homo sapiens, UniProt P43403)
- Construct: Kinases are expressed as either kinase domains or full length constructs; made in house
- Sequence (P43403 1-619): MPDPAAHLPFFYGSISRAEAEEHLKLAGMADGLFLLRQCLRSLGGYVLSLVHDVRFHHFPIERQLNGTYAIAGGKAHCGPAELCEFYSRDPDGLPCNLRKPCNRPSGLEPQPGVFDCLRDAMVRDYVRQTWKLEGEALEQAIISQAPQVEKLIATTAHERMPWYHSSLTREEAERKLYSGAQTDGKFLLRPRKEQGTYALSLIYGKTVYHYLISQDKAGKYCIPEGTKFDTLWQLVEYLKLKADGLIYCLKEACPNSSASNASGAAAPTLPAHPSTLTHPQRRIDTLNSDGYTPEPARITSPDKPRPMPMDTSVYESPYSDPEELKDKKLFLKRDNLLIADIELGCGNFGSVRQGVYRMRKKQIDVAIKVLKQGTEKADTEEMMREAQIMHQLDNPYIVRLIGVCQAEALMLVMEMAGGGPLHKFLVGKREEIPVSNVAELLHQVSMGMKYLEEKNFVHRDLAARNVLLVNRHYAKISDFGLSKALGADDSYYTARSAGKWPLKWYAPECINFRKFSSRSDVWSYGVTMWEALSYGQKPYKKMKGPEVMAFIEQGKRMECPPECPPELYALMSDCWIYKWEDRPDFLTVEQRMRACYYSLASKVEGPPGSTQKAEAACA
- Test method notes: Kinase inhibition assay (33P transfer), Zap-70
- Assay type: biochemical
- Condition details: Table 3; read-out: Zap-1
pIC50: −log10 of the molar value.
Observed property: pIC50

[[record]]
chem_smiles = "CCOc1ccc(Nc2ncnc(Nc3ccc(C)c(O)c3)n2)cc1OCC"
observed_property = "pIC50"
result = "< 4.93"

[[record]]
chem_smiles = "COc1cc(Nc2ncnc(-n3c(Nc4ccc(C)cc4)nc4ccccc43)n2)cc(OC)c1OC"
observed_property = "pIC50"
result = "< 5.03"

[[record]]
chem_smiles = "COc1ccc(Nc2ncnc(-n3c(N)nc4ccccc43)n2)cc1O"
observed_property = "pIC50"
result = "< 4.89"

[[record]]
chem_smiles = "COc1cc(Nc2ncnc(Nc3cccc(Br)c3)n2)cc(OC)c1OC"
observed_property = "pIC50"
result = "4.98 to 5.09"

[[record]]
chem_smiles = "COc1cc(Nc2ncnc(Nc3ccc(N)cc3)n2)cc(OC)c1OC"
observed_property = "pIC50"
result = "4.91 to 5.02"


For each entry beneath this line, provide reported pIC50.
1. COc1cc(Nc2ncnc(Nc3ccc(F)cc3)n2)cc(OC)c1OC
2. CCN(CC)CCCNc1ccc(-c2ncnc(Nc3cc(OC)c(OC)c(OC)c3)n2)cn1
3. Nc1ncnc(Nc2ccc(F)cc2F)n1

1. < 4.92
2. < 5.02
3. < 4.70

Here are 5 compounds. What values of pIC50 were reported for them?
1. COc1cc(Nc2ncnc(-n3c(Nc4ccc5[nH]ncc5c4)nc4ccccc43)n2)cc(OC)c1OC
2. NCc1ccc(Nc2ncnc(Nc3cc(-c4ccco4)n[nH]3)n2)cc1
3. Cc1ccc(Nc2ncnc(-n3cccc3)n2)cc1Cl
4. COCCOc1ccc(Nc2ncnc(-c3ccccc3)n2)cc1
5. Nc1ncnc(Nc2nc(-c3ccccc3)cs2)n1

< 5.05
< 4.89
< 4.80
< 4.86
< 4.78

Quick request: pIC50 for each listed item, please.
1. COc1cc(Nc2ncnc(-n3ccc4ccc(F)cc43)n2)cc(OC)c1OC
2. COc1cc(Nc2ncnc(-n3ccc4c(OC)cccc43)n2)cc(OC)c1OC

1: < 4.94; 2: < 4.96
